assay: Displacement of [3H]CNQX from AMPA receptor on rat brain homogenate; assay type: tissue-based
RECORDED_METRIC: IC50 (nM)
One number for each entry, in nM.

CS(=O)(=O)Nn1c(=O)[nH]c2cc(C(F)(F)F)c(N3CCCOCC3)cc2c1=O
360
CS(=O)(=O)Nn1c(=O)[nH]c2cc(C(F)(F)F)c(N3CCOCC3)cc2c1=O
500
CS(=O)(=O)Nn1c(=O)[nH]c2cc(C(F)(F)F)c(-n3cnnc3)cc2c1=O
46

# query: IC50 of entry CS(=O)(=O)Nn1c(=O)[nH]c2cc(C(F)(F)F)c(N)cc2c1=O 1200

----------
assay: Clearance in DBA/2 mouse at 30 mg/kg; assay type: ADME, organism-based; parameters: dose 30 mg/kg; settings: in vivo
RECORDED_METRIC: clearance (L/h/kg)
Give bare numbers, in L/h/kg.

Study these solved cases before continuing.
CN(CCO)c1cc2c(=O)n(NS(C)(=O)=O)c(=O)[nH]c2cc1C(F)(F)F
2.94
CS(=O)(=O)Nn1c(=O)[nH]c2cc(C(F)(F)F)c(N3CCOCC3)cc2c1=O
8.1

# query: clearance of entry CS(=O)(=O)Nn1c(=O)[nH]c2cc(C(F)(F)F)c(N3CCCOCC3)cc2c1=O 0.612

----------
assay: Displacement of [3H]CNQX from AMPA receptor on rat brain homogenate; format: tissue-based
RECORDED_METRIC: pIC50
Give bare numbers, as −log10 of the molar value.

Study these solved cases before continuing.
CS(=O)(=O)Nn1c(=O)[nH]c2cc(C(F)(F)F)c(NCCO)cc2c1=O
6.26
CCNc1cc2c(=O)n(NS(C)(=O)=O)c(=O)[nH]c2cc1C(F)(F)F
6.00
CS(=O)(=O)Nn1c(=O)[nH]c2cc(C(F)(F)F)c(-n3ccnc3)cc2c1=O
7.36
CS(=O)(=O)Nn1c(=O)[nH]c2cc([N+](=O)[O-])c(-n3ccnc3)cc2c1=O
7.09
CNC(=O)c1ncn(-c2cc3c(=O)n(NS(C)(=O)=O)c(=O)[nH]c3cc2C(F)(F)F)n1
6.96

For each of the compounds below, note its pIC50.
1. CN(C)C(=O)c1cn(-c2cc3c(=O)n(NS(C)(=O)=O)c(=O)[nH]c3cc2C(F)(F)F)cn1
2. CN(CCO)c1cc2c(=O)n(NS(C)(=O)=O)c(=O)[nH]c2cc1C(F)(F)F
3. CN(C)C(=O)c1ncn(-c2cc3c(=O)n(NS(C)(=O)=O)c(=O)[nH]c3cc2C(F)(F)F)n1
4. CS(=O)(=O)Nn1c(=O)[nH]c2cc(C(F)(F)F)c(-n3cccc3)cc2c1=O

1: 6.38; 2: 6.60; 3: 5.99; 4: 6.78

----------
Provide the reported bioavailability of each item.
experiment: Oral bioavailability in DBA/2 mouse at 30 mg/kg; type: ADME, organism-based; details: in vivo

CS(=O)(=O)Nn1c(=O)[nH]c2cc(C(F)(F)F)c(N3CCOCC3)cc2c1=O
100%
CN(CCO)c1cc2c(=O)n(NS(C)(=O)=O)c(=O)[nH]c2cc1C(F)(F)F
100%
CNC(=O)c1cn(-c2cc3c(=O)n(NS(C)(=O)=O)c(=O)[nH]c3cc2C(F)(F)F)cn1
10%
CS(=O)(=O)Nn1c(=O)[nH]c2cc(C(F)(F)F)c(N3CCCOCC3)cc2c1=O
100%

# query: bioavailability of entry CS(=O)(=O)Nn1c(=O)[nH]c2cc(C(F)(F)F)c(-n3cnnc3)cc2c1=O 10%
